Entries and their EC50 cAMP, Alpha Screen
# assayTarget: T1, human VPAC2 receptor (human, UniProt P41587 24-438)
# T1 sequence (looked up): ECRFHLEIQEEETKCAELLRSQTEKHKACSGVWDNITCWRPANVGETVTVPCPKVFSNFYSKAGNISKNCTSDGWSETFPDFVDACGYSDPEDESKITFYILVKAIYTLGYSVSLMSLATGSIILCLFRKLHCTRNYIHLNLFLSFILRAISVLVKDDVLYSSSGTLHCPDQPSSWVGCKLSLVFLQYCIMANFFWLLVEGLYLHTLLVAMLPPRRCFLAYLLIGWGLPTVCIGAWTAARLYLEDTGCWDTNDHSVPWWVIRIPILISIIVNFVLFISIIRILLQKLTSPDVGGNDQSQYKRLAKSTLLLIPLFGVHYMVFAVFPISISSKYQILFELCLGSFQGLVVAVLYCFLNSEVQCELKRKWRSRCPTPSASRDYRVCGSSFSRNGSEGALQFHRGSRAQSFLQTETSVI
# testDetails: cell-based or functional assay
Where no end group is shown, it is not given here. [ ]: non-standard residue; d: D form. The star is where a group is joined. Hexanoyl = CCCCCC(=O)*; Aib = CC(C)(N)C(=O)O

{"binder": "Hexanoyl-HSDAVFTDNYTRLRKQVAAKKYLQSIKNKKGGPSSGAPPPS [P121]", "EC50 cAMP, Alpha Screen": "0.1 nM"}
{"binder": "Hexanoyl-HSDAVFTDNYTRLRKQVAAKKYIQSIKNKRYGGPSSGAPPPS [P233]", "EC50 cAMP, Alpha Screen": "0.11 nM"}
{"binder": "Hexanoyl-HVDAVFTDNYTRLRKQVAAKKYLQSIKNKRYGGPSSGAPPPS [P99]", "EC50 cAMP, Alpha Screen": "0.14 nM"}
{"binder": "Hexanoyl-HSDAVFTDNYTRLRKQVAAKKVLQSIKNKRYGGPSSGAPPPS [P134]", "EC50 cAMP, Alpha Screen": "5.47 nM"}
{"binder": "HSDAVFTDNYTXLRXQVAAXKYLQSIXXGGPSSGAPPPS (N-terminal hexanoyl (C6); Orn at 12; Aib at 15, 20; hR at 27, 28) [P335]", "EC50 cAMP, Alpha Screen": "0.22 nM"}
{"binder": "Hexanoyl-HSDAVFTDNYTRLR[Aib]QKAA[Aib]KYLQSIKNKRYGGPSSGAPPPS (ends and bridges not checked) [P323]", "EC50 cAMP, Alpha Screen": "0.23 nM"}
{"binder": "Hexanoyl-HSDAVFTDNYTRLRKQVAAKKYLQSTKNKRYGGPSSGAPPPS [P108]", "EC50 cAMP, Alpha Screen": "0.27 nM"}
{"binder": "Hexanoyl-HSDAVFTDNYTRLRKQVAAKKYLQSVKNKRYGGPSSGAPPPS [P109]", "EC50 cAMP, Alpha Screen": "0.22 nM"}
{"binder": "Hexanoyl-HSDAVFTDNYTRLRKQVAAFKYLQSIKNKRYGGPSSGAPPPS [P148]", "EC50 cAMP, Alpha Screen": "0.1 nM"}
{"binder": "Hexanoyl-HSDAVFTDNYTRLRKQVAAKKYLQQIKNKRYGGPSSGAPPPS [P124]", "EC50 cAMP, Alpha Screen": "0.09 nM"}
{"binder": "Hexanoyl-HSDAVFTDNYTRLQKQVAAKQYLQSIKNKRYGGPSSGAPPPS [P253]", "EC50 cAMP, Alpha Screen": "0.46 nM"}
